Data provenance is ChEMBL document CHEMBL1201862.

Test system: KM-20L2
METHOD: NCI tumour cell line growth inhibition, 48 h
Activity calls are given as the source filed them. Rule as the data show it: active = GI50 up to about 1.1 µM and inactive = higher.
API: response.call in t = active, f = inactive

Recorded results for 8 compounds are shown here.
I'd appreciate the recorded outcome for `COc1ccc(N/N=C(\CCN(C)C)c2ccccc2)cc1` from this test.
t

Please state the recorded outcome for this compound: COc1c2c(cc3nc4ccccc4nc13)CCC(C(C)(C)O)C2 (stereo not drawn)
f

Give the logged outcome of this assay for the following compound: Cc1c(Cl)ccc2c1NC(=O)C2(O)CC(=O)c1ccc(Cl)cc1 (stereo not drawn)
f

Would you mind telling me which call this test gave `COc1ccc(OC)c(NC(=O)CCC/C(CC(=O)c2ccc(O)c(OC)c2)=N\Nc2nnc(C)n2N)c1` ?
f

Could you please tell me the result logged for `COC/C=C\COC` in this assay?
f

What is the recorded call for this compound in the test? `O=C(O)CN(CC(=O)O)Cc1cc(C#Cc2ccc(C#Cc3ccccc3)cc2)cc(CN(CC(=O)O)CC(=O)O)n1`
f

Which outcome was assigned to CC(=O)C1C(=O)C(=O)N(c2ccccc2N2C(=O)C(=O)C(C(C)=O)C2=O)C1=O (stereo not drawn) in this test?
f

Write down the call the test reported for this compound. Item: `CCOCc1cc(=O)c2cc3c(cc2o1)OC(C)(C)CC3`
f

Continuing:
Each compound tested received a call. Report the one for `CCCCCCCCCc1cc(=O)c2ccc(O)cc2o1` .
f

Entry Cc1cccc(C)c1N1C(=O)C(=O)C(c2nc3ccccc3s2)/C(=N/c2cccc3c(=O)[nH][nH]c(=O)c23)C1=O (stereo not drawn) : call = ?
f

Please share the test call associated with `O=C1c2c(nc3ccccc3c2-c2ccccc2)CN1Nc1ccccc1` .
f

Query: recorded result category for `CS(=O)(=O)OCCn1cnc2nc(NC(=O)c3ccccc3)[nH]c(=O)c21` in this test
f

###

Tested on: SF-268
METHOD: NCI tumour cell line growth inhibition, 48 h
Active and inactive are the calls of the source. Rule as the data show it: active = GI50 up to about 1.1 µM and inactive = higher.
READOUT_NAME: GI50

Give the reported value of GI50 for this record: `CC1=C(C(=O)Nc2ccc([N+](=O)[O-])cc2)C(c2ccccc2O)C(C(=O)Nc2ccc([N+](=O)[O-])cc2)=C(C)N1`
19.1 µM (inactive)

Supply reported GI50 belonging to this compound: `Cc1cc[n+]2c(c1)-c1cc(C)cc[n+]1CC2`
> 100 µM (inactive)

Look up and report measured GI50 for this entry: CC1(C)CC2=C(Sc3ccccc3N2)C(=O)C1C(=O)C(=O)Nc1cc(Cl)ccc1Cl (stereo not given)
> 100 µM (inactive)

Determine from records and report GI50 for `CC(=O)Nc1ccc(/C=C/C(=O)c2sc(-n3nc(-c4ccccc4)cc3-c3ccccc3)nc2C)cc1`
> 10 µM (inactive)

Query compound follows.
Write down GI50 measured for item `C=C1CN=C(Nc2ccc(F)cc2F)S1`
> 100 µM (inactive)

###

Tested on: UO-31
METHOD: NCI tumour cell line growth inhibition, 48 h
Calls of active or inactive are those of the source. No stated cut-off is given here; in the data, active = GI50 up to about 1.1 µM and inactive = higher.
READOUT_NAME: GI50

Example entries and their recorded answers appear below.
Name the recorded GI50 of the compound listed here: `CCOC(=O)C(=O)Nc1cc(Cl)c(Cl)cc1Cl`
> 100 µM (inactive)

Fill in reported GI50 for this entry: CS(=O)(=O)N1CC(CCl)c2ccc(NO)cc21 (configuration not stated)
10.3 µM (inactive)

Supply recorded GI50 for `CCOC(=O)C(=O)Nc1ccc(Cl)c(C(F)(F)F)c1` here.
> 100 µM (inactive)

Indicate the recorded GI50 value for this compound: `O=C1c2ccccc2-c2c1c1ccccc1c(=O)n2Cc1ccccc1`
> 100 µM (inactive)

Further cases:
Provide measured GI50 value, entry: `CS(=O)(=O)OCCCSCCSCCCOS(C)(=O)=O`
> 100 µM (inactive)

Given the compound `COc1ccc(NC(=O)C(=O)Cc2nc3ccc(C(=O)c4ccccc4)cc3nc2O)c([N+](=O)[O-])c1` , write its reported GI50.
18.2 µM (inactive)

Give recorded GI50. `Cc1cc([N+](=O)[O-])ccc1/N=N/C(=O)NNc1ccc([N+](=O)[O-])cc1C`
11.8 µM (inactive)

Note GI50 for the compound shown: `CC(C)(C)OC(=O)/C=C/C(=O)O/C=C/[N+](=O)[O-]`
> 100 µM (inactive)

Answer with the recorded GI50 of CN(C(=O)[C@H](NC(=O)OCc1ccccc1)c1ccccc1)C1CCCCC1N1CCCC1 (some centres not stated) only.
48.5 µM (inactive)

Note GI50 for the compound shown: `Cc1c(C)c(S(=O)(=O)N(CCCCCON)OCCCN)c(C)c2c1OC(C)(C)CC2`
16.6 µM (inactive)

For the compound CCCCN(C)CC(C(C)=O)C(c1ccccc1)c1c(O)c2ccccc2oc1=O (configuration not stated) , give its measured GI50 value.
> 100 µM (inactive)

Given `O=C1c2cccc3cc([N+](=O)[O-])cc(c23)C(=O)N1O` , respond with its GI50.
31.7 µM (inactive)

Determine from records and report GI50 for `Cc1ccc(O)c(-c2cc(-c3ccccc3)nc(/N=C\c3ccccc3)n2)c1`
2.94 µM (inactive)

Report GI50 for `O=C1c2c(nc3ccccc3c2-c2ccccc2)CN1Nc1ccccc1`
> 100 µM (inactive)

Specify reported GI50 for the compound shown: `CC(=O)O[C@@]12[C@@H]3O[C@@]4(O)C[C@]5(C)[C@H]6C[C@@](C(C)C)(O[C@H]5c5ccoc5)O[C@H]1[C@]6(C4)O[C@]2(O)C(C)=CC3(C)C`
> 100 µM (inactive)

Answer with the recorded GI50 for the compound listed here: `COc1ccc(/C=C(\C#N)c2nc3ccccc3c(=O)[nH]2)cc1`
26.5 µM (inactive)
